Each recorded value in this set is attributed to patent US6770632B1.

test system: 9L cells; assay: Cell culture survival study, 9L cells; assay type: cell-based, rat; conditions: Rattus norvegicus, 4 h, 9L, 4 hrs drug exposure, bystander experiment FIG. 4b; read-out: ED50 (the source's name)
pEC50: −log10 of the molar value.
PARAMETER: pEC50

{"columns": ["COMPOUND", "OBSERVED"],
 "data": [
  ["CCC(Cc1cnc2nc(N)nc(N)c2n1)c1ccc(C(=O)N[C@@H](CCC(=O)O)C(=O)O)cc1 (stereo partly shown) [EDX, Edatrexate]", 6.05]
]}

###

tested on: 9L cells; experiment: Cell culture survival study, 9L cells; assay type: cell-based, rat; conditions: Rattus norvegicus, 72 h, 9L, 72 hrs drug exposure; read-out: ED50 (the source's name)

{"columns": ["COMPOUND_STRUCTURE", "EC50 (nM)"],
 "data": [
  ["CN(Cc1cnc2nc(N)nc(N)c2n1)c1ccc(C(=O)N[C@@H](CCC(=O)O)C(=O)O)cc1", 40]
]}
